test system: A549; assay: Cytotoxicity against human A549 cells after 3 days by MTT assay; assay type: functional, cell-based; details: A549, 72 h
Experimental endpoint: pIC50
Please express pIC50 as -log10 of the molar concentration.

Field request: pIC50 | item: CCOP(=O)(OCC)C(NC(=S)NC(=O)[C@]1(C)CCC[C@]2(C)c3ccc(C(C)C)cc3C(=O)C[C@@H]12)c1ccccc1 (stereo partly drawn)
4.67

Moving on to the next compound: CCOP(=O)(OCC)C(NC(=S)NC(=O)[C@]1(C)CCC[C@]2(C)c3ccc(C(C)C)cc3/C(=N\O)C[C@@H]12)c1cccc2ccccc12 (stereo partly drawn)
4.55

API: the following record is the query input.
Field request: pIC50 | item: CCOP(=O)(OCC)C(NC(=S)NC(=O)[C@]1(C)CCC[C@]2(C)c3ccc(C(C)C)cc3/C(=N\O)C[C@@H]12)c1cccc(Br)c1 (stereo partly drawn)
4.46

----------
system: SK-OV-3; assay: Cytotoxicity against human SKOV3 cells after 3 days by MTT assay; assay type: functional, cell-based; settings: SK-OV-3, 72 h
Hi! Could you tag entries with IC50 below 20 µM as yes, and those at or above as no? Much appreciated.

Illustrative cases are given below, each with its answer.
I wonder whether CCOP(=O)(OCC)C(NC(=S)NC(=O)[C@]1(C)CCC[C@]2(C)c3ccc(C(C)C)cc3C(=O)C[C@@H]12)c1ccc(F)cc1 (some centres not stated) has IC50 below 20 µM. Can you tell?
no

Moving on to the next compound: CCOP(=O)(OCC)C(NC(=S)NC(=O)[C@]1(C)CCC[C@]2(C)c3ccc(C(C)C)cc3/C(=N\O)C[C@@H]12)c1ccc(Br)cc1 (some centres not stated)
yes

Moving on to the next compound: CCOP(=O)(OCC)C(NC(=S)NC(=O)[C@]1(C)CCC[C@]2(C)c3ccc(C(C)C)cc3/C(=N\O)C[C@@H]12)c1ccc(F)cc1 (some centres not stated)
yes

Moving on to the next compound: CCOP(=O)(OCC)C(NC(=S)NC(=O)[C@]1(C)CCC[C@]2(C)c3ccc(C(C)C)cc3/C(=N\O)C[C@@H]12)c1cccc2ccccc12 (some centres not stated)
no

Moving on to the next compound: CCOP(=O)(OCC)C(NC(=S)NC(=O)[C@]1(C)CCC[C@]2(C)c3ccc(C(C)C)cc3C(=O)C[C@@H]12)c1cccc(Cl)c1 (some centres not stated)
no

Moving on to the next compound: CCOP(=O)(OCC)C(NC(=S)NC(=O)[C@]1(C)CCC[C@]2(C)c3ccc(C(C)C)cc3/C(=N\O)C[C@@H]12)c1cccc(Cl)c1 (some centres not stated)
yes

Moving on to the next compound: CCOP(=O)(OCC)C(NC(=S)NC(=O)[C@]1(C)CCC[C@]2(C)c3ccc(C(C)C)cc3/C(=N\O)C[C@@H]12)c1ccc(Cl)cc1 (some centres not stated)
yes

Moving on to the next compound: CCOP(=O)(OCC)C(NC(=S)NC(=O)[C@]1(C)CCC[C@]2(C)c3ccc(C(C)C)cc3/C(=N\O)C[C@@H]12)c1ccccc1 (some centres not stated)
no

***
I wonder whether CCOP(=O)(OCC)C(NC(=S)NC(=O)[C@]1(C)CCC[C@]2(C)c3ccc(C(C)C)cc3C(=O)C[C@@H]12)c1ccccc1OC (some centres not stated) has IC50 below 20 µM. Can you tell?
no

Moving on to the next compound: CCOP(=O)(OCC)C(NC(=S)NC(=O)[C@]1(C)CCC[C@]2(C)c3ccc(C(C)C)cc3C(=O)C[C@@H]12)c1ccccc1F (some centres not stated)
no

Moving on to the next compound: O=c1[nH]cc(F)c(=O)[nH]1
no

Moving on to the next compound: CC(C)c1ccc2c(c1)CC[C@H]1[C@](C)(C(=O)O)CCC[C@]21C [DEHYDROABIETIC ACID]
no

Cited source: ChEMBL document CHEMBL2434931
